- tested_on: Sucrase-isomaltase, intestinal (Rattus norvegicus)
- Sequence (P23739 1-1013 limits assumed): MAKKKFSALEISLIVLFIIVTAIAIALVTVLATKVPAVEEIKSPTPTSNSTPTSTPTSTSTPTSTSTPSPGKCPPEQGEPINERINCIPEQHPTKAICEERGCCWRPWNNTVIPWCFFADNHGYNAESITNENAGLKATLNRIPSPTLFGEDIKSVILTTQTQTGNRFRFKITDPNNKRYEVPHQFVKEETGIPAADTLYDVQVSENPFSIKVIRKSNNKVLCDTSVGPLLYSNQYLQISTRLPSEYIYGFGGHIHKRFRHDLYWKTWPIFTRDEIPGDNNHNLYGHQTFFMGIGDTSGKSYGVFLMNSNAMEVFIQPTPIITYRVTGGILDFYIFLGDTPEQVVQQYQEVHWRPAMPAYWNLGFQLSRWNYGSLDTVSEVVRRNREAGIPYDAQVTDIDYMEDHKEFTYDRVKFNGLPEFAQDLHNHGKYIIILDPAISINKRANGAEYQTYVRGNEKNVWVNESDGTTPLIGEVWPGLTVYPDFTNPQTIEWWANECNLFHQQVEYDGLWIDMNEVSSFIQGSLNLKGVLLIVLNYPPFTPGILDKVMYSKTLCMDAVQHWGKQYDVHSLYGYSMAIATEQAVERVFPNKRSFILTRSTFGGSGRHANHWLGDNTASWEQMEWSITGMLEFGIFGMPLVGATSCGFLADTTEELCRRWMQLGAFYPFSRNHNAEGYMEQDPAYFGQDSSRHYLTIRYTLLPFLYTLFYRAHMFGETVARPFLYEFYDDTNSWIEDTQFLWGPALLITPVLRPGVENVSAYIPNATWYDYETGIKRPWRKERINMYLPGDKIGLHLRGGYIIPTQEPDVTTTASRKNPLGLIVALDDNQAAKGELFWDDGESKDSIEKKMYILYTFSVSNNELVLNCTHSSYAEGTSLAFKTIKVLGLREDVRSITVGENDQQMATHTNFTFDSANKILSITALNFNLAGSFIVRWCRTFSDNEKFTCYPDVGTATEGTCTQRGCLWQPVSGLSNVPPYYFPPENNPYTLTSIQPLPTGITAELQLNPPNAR
- Sequence (P23739 1014-1841 limits assumed): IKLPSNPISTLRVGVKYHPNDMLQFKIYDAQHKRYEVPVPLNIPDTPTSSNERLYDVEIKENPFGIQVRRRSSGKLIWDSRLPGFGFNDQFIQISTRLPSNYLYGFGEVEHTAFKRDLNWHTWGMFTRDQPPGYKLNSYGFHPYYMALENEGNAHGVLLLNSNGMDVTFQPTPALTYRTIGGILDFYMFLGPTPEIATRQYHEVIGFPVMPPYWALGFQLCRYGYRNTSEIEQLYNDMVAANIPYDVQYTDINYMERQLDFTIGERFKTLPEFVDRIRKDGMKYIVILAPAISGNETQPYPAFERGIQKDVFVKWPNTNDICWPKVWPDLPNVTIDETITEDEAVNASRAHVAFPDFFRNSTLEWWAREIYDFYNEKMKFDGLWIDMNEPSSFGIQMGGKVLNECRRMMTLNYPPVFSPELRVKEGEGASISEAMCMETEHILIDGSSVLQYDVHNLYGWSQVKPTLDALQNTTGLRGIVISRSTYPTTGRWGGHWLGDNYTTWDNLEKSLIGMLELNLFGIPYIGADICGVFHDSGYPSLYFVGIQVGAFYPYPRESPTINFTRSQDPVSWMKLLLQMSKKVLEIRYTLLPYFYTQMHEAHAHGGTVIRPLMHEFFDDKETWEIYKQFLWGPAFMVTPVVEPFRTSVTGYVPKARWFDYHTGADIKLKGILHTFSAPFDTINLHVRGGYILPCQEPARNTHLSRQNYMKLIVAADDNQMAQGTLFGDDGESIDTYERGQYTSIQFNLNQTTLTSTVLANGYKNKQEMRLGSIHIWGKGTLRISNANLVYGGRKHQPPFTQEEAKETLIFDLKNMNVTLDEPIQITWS
- test_protocol: Inhibition of rat intestinal isomaltase using p-nitrophenyl glycoside as substrate assessed as release of p-nitrophenol measured by spectrometric assay
- recorded_conditions: read-out: IC50
property_label: pIC50
When answering, recall that pIC50 equals minus log10 of the concentration in mol/L, and write that number alone.

• CCCC[C@]1(CO)NC[C@H](O)[C@@H](O)[C@@H]1O.Cl = 5.59
• CCCCCCCCC[C@]1(CO)NC[C@H](O)[C@@H](O)[C@@H]1O.Cl = 5.77
• CCCCCCC[C@]1(CO)NC[C@H](O)[C@@H](O)[C@@H]1O.Cl = 6.26
• CCCCCCCCCCC[C@]1(CO)NC[C@H](O)[C@@H](O)[C@@H]1O.Cl = 5.96

Ask: Kindly indicate its recorded pIC50. Item: "C[C@]1(CO)NC[C@H](O)[C@@H](O)[C@@H]1O.Cl"
Result: 6.02

====

- Species on record: Sus scrofa
- test_protocol: Inhibition of porcine kidney alpha-trehalase using p-nitrophenyl glycoside as substrate assessed as release of p-nitrophenol at 1000 uM measured by spectrometric assay relative to control
property_label: inhibition (%)
Report only the number, with the unit % understood.

* CCCCC[C@@]1(CO)NC[C@H](O)[C@@H](O)[C@@H]1O.Cl | 5.3
* CCCC[C@@]1(CO)NC[C@H](O)[C@@H](O)[C@@H]1O.Cl | 0
* CCCCCCCCCCC[C@@]1(CO)NC[C@H](O)[C@@H](O)[C@@H]1O.Cl | 0

Ask: Kindly indicate its recorded inhibition. Item: "CCCCC[C@]1(CO)NC[C@H](O)[C@@H](O)[C@@H]1O.Cl"
Result: 10.6

====

- Species on record: Bos taurus
- test_protocol: Inhibition of bovine liver beta-glucosidase using p-nitrophenyl glycoside as substrate assessed as release of p-nitrophenol at 1000 uM measured by spectrometric assay relative to control
- Assay type: tissue-based
Values of inhibition greater than or equal to 10% map to Satisfied; values below map to Not satisfied.

Before answering, review these 5 worked examples.
• CCCCCCCCCCCC[C@]1(CO)NC[C@H](O)[C@@H](O)[C@@H]1O.Cl = Satisfied
• CCCCCCCC[C@@]1(CO)NC[C@H](O)[C@@H](O)[C@@H]1O.Cl = Satisfied
• CCCCCCC[C@@]1(CO)NC[C@H](O)[C@@H](O)[C@@H]1O.Cl = Satisfied
• C[C@@]1(CO)NC[C@H](O)[C@@H](O)[C@@H]1O.Cl = Not satisfied
• CC[C@]1(CO)NC[C@H](O)[C@@H](O)[C@@H]1O.Cl = Satisfied

Ask: State whether the measured inhibition reaches 10%, counting equality as reaching it, for "CCCCCC[C@@]1(CO)NC[C@H](O)[C@@H](O)[C@@H]1O.Cl"
Result: Satisfied

Ask: State whether the measured inhibition reaches 10%, counting equality as reaching it, for "CCCCCC[C@]1(CO)NC[C@H](O)[C@@H](O)[C@@H]1O.Cl"
Result: Satisfied

Ask: State whether the measured inhibition reaches 10%, counting equality as reaching it, for "CCCCCCC[C@]1(CO)NC[C@H](O)[C@@H](O)[C@@H]1O.Cl"
Result: Satisfied

Ask: State whether the measured inhibition reaches 10%, counting equality as reaching it, for "CCCCCCCCCCC[C@]1(CO)NC[C@H](O)[C@@H](O)[C@@H]1O.Cl"
Result: Not satisfied

Ask: State whether the measured inhibition reaches 10%, counting equality as reaching it, for "OC[C@H]1NC[C@H](O)[C@@H](O)[C@@H]1O"
Result: Not satisfied

====

- Test system: Prunus dulcis
- test_protocol: Inhibition of almond beta-glucosidase using p-nitrophenyl glycoside as substrate assessed as release of p-nitrophenol at 1000 uM measured by spectrometric assay relative to control
Entries and their measured inhibition follow.
Report only the number, with the unit % understood.

• CCCCCCCCCC[C@]1(CO)NC[C@H](O)[C@@H](O)[C@@H]1O.Cl = 10

Ask: Kindly indicate its recorded inhibition. Item: "CCCCCCC[C@@]1(CO)NC[C@H](O)[C@@H](O)[C@@H]1O.Cl"
Result: 6.9

Ask: Kindly indicate its recorded inhibition. Item: "CCCCCCCCCCCC[C@]1(CO)NC[C@H](O)[C@@H](O)[C@@H]1O.Cl"
Result: 10

====

- tested_on: Beta-glucuronidase (Escherichia coli (strain K12)) (UniProt P05804)
- Sequence (P05804 whole entry, looked up): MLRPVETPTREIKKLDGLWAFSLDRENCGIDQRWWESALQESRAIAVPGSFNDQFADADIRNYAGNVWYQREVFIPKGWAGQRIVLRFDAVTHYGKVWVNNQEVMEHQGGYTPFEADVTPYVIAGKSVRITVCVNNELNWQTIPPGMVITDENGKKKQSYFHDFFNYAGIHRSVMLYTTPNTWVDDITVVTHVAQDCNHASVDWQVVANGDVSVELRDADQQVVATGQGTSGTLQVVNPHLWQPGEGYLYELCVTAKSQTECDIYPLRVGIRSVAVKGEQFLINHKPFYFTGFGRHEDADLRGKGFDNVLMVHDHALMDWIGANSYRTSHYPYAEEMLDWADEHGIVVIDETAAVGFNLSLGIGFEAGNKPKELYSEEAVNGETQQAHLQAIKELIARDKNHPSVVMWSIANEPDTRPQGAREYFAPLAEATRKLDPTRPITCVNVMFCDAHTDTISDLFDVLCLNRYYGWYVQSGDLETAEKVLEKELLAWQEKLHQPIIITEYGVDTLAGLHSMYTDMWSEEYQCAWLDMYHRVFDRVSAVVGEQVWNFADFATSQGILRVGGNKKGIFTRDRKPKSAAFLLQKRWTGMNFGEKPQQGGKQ
- test_protocol: Inhibition of Escherichia coli beta-glucuronidase using p-nitrophenyl glycoside as substrate assessed as release of p-nitrophenol at 1000 uM measured by spectrometric assay relative to control
Values of inhibition greater than or equal to 3% map to true; values below map to false.

Before answering, review these 2 worked examples.
• CCCCC[C@@]1(CO)NC[C@H](O)[C@@H](O)[C@@H]1O.Cl = true
• CCCCCC[C@]1(CO)NC[C@H](O)[C@@H](O)[C@@H]1O.Cl = true

Ask: State whether the measured inhibition reaches 3%, counting equality as reaching it, for "CCCCCCCCCC[C@]1(CO)NC[C@H](O)[C@@H](O)[C@@H]1O.Cl"
Result: true

Ask: State whether the measured inhibition reaches 3%, counting equality as reaching it, for "C[C@]1(CO)NC[C@H](O)[C@@H](O)[C@@H]1O.Cl"
Result: false

Ask: State whether the measured inhibition reaches 3%, counting equality as reaching it, for OC[C@H]1NC[C@H](O)[C@@H](O)[C@@H]1O [DUVOGLUSTAT]
Result: false

Ask: State whether the measured inhibition reaches 3%, counting equality as reaching it, for "CCCCCCC[C@@]1(CO)NC[C@H](O)[C@@H](O)[C@@H]1O.Cl"
Result: false

Ask: State whether the measured inhibition reaches 3%, counting equality as reaching it, for "CCCCCCCCCC[C@@]1(CO)NC[C@H](O)[C@@H](O)[C@@H]1O.Cl"
Result: true

Ask: State whether the measured inhibition reaches 3%, counting equality as reaching it, for "CC[C@]1(CO)NC[C@H](O)[C@@H](O)[C@@H]1O.Cl"
Result: true

====

- test_protocol: Inhibition of rat intestinal maltase using maltose as substrate assessed as release of D-glucose measured by spectrometric assay
Entries and their measured pIC50 follow.
When answering, recall that pIC50 equals minus log10 of the concentration in mol/L, and write that number alone.

Ask: Kindly indicate its recorded pIC50. Item: "CCCCCCCCCC[C@@]1(CO)NC[C@H](O)[C@@H](O)[C@@H]1O.Cl"
Result: 3.58

Ask: Kindly indicate its recorded pIC50. Item: "CCCCCCCCCC[C@]1(CO)NC[C@H](O)[C@@H](O)[C@@H]1O.Cl"
Result: 6.92

Ask: Kindly indicate its recorded pIC50. Item: "CCCCC[C@]1(CO)NC[C@H](O)[C@@H](O)[C@@H]1O.Cl"
Result: 7.64

====

Entries and their measured inhibition follow.
- Species on record: Bos taurus
- test_protocol: Inhibition of bovine liver beta-glucosidase using p-nitrophenyl glycoside as substrate assessed as release of p-nitrophenol at 1000 uM measured by spectrometric assay relative to control
- Format: tissue-based
Report only the number, with the unit % understood.

Known results for compounds:
• C[C@]1(CO)NC[C@H](O)[C@@H](O)[C@@H]1O.Cl = 9.5
• CCC[C@]1(CO)NC[C@H](O)[C@@H](O)[C@@H]1O.Cl = 10.3

We now examine a further compound.
Ask: Kindly indicate its recorded inhibition. Item: "CC[C@@]1(CO)NC[C@H](O)[C@@H](O)[C@@H]1O.Cl"
Result: 9.2
